Molecular target: T1, Kr (human, UniProt Q01973)
T1 construct: Kringle domain of the extracellular domain; also called hFc-hROR1-Kr
T1 sequence (Q01973 312-391 limits assumed): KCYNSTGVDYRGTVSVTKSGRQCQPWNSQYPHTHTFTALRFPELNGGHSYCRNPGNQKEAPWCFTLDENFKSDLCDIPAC
Experiment: ELISA on directly coated hFc fusion proteins of hROR1 domains; anti-His-HRP; A405
property_name: binding result

ERR1-TOP40 chimeric rabbit/human Fab (Fab, V domains shown, Chimeric rabbit/human Fab with His tag, expressed in E. coli (pET11a); kappa light chain) VH: QEQLEESGGRLVTPGTPLTLTCTASGFSLSNYYMSWVRQAPGKGLEYIGIISSSGSTYYASWAKGRFTISKTSSTTVDLKITSPTTEDTATYFCARLYVSDSTANLWGPGTLVTVSS VL: DIVLTQTPSSTSAAVGGTVTIKCQASQSIDSYLAWYQQKPGQPPKLLIYGASNLASGVPSRFSGSRSGTEYILTISGVQREDAATYYCLGGYPNYFHRTAFGGGTKLEIK : no binding
ERR1-403 chimeric rabbit/human Fab (Fab, V domains shown, Chimeric rabbit/human Fab with His tag, expressed in E. coli (pET11a); lambda light chain) VH: QEQLKESGRGLVQPGGSLKLSCKASGFDFSGWYMTWVRQAPGKGLEWIGTIGTTKGRTYYASWVNGRFTISSNAQNTVDLQMNSLTAADRATYFCVRGSDYFDLWGPGTLVTISS VL: SYELTQLPSVSVSLGQTARITCGGNSIGSKAVNWYQQKPGLAPGLLIYDDDERPSGVPARFSGSNSGDTATLTISGAQAGDEADYYCQLWDSSAGAYVFGGGTQLTVTG : no binding
